# Tested on: isolated rat bladder strips (smooth muscle)
# PROTOCOL DESCRIPTION: Inhibition of contractions in isolated rat bladder strips
# Set-up: species or system Sprague-Dawley rat
# TEST PARAMETERS: 0.5 h, 15 mM KCl-enhanced contractions, 30 minute challenge, ± spread
# Method: The smooth muscle relaxing activity of the compounds of this invention was established in accordance with standard pharmaceutically accepted test procedures with representative compounds as follows: Sprague-Dawley rats (150-200 g) are rendered unconscious by CO2 asphyxiation and then euthanized by cervical dislocation. […] Contractile activity is measured for each compound or vehicle concentration during the last minute of a 30 minute challenge. […]
OBSERVATION TYPE: IC50 (µM)
Quick reminder: number only, in µM, skip the unit.

Some compounds with recorded IC50:
C[C@@H](Nc1c(NCc2ccccc2C(F)(F)F)c(=O)c1=O)C(C)(C)C
20.4
CC(C)(C)Nc1c(NCc2cccc(OC(F)(F)F)c2)c(=O)c1=O
13.6
C[C@@H](Nc1c(NCc2ccc(F)cc2)c(=O)c1=O)C(C)(C)C
0.76
CC(C)(C)Nc1c(NCc2ccc(F)cc2)c(=O)c1=O
1.5

Proceeding to the next compound to report its IC50.
// IC50 lookup, key: CC(C)(C)Nc1c(NCc2ccc(C(F)(F)F)cc2)c(=O)c1=O
6.5

Data provenance is patent US5750574A.
